Data origin, for the record: patent US20220372067A1

# TARGET ENTITY: GABAA receptor (TBPS binding site), rat brain cortical membranes
# PROTOCOL DETAILS: [35S]-TBPS binding assay, rat brain cortical membranes in the presence of 5 mM GABA
# SETUP CONDITIONS: inhibition of 3 nM [35S]-TBPS binding
# Protocol: [^35S]-t-Butylbicyclophosphorothionate (TBPS) binding assays using rat brain cortical membranes in the presence of 5 mM GABA has been described (Gee et al, J. Pharmacol. Exp. Ther. 1987, 241, 346-353; Hawkinson et al, Mol. Pharmacol. 1994, 46, 977-985; Lewin, A. H et al., Mol. Pharmacol. 1989, 35, 189-194). Briefly, cortices are rapidly removed following decapitation of carbon dioxide-anesthetized Sprague-Dawley rats (200-250 g). […]
pIC50: −log10 of the molar value.

SMILES REPR: CCOC[C@@]1(O)CC[C@H]2[C@H](CC[C@@H]3[C@@H]2CC[C@]2(C)[C@@H](C(=O)Nc4cccnc4F)CC[C@@H]32)C1
pIC50: > 7.00

SMILES REPR: CCOC[C@@]1(O)CC[C@H]2[C@H](CC[C@@H]3[C@@H]2CC[C@]2(C)[C@@H](C(=O)Nc4cncc(C#N)n4)CC[C@@H]32)C1
pIC50: > 7.00

SMILES REPR: CCOC[C@@]1(O)CC[C@@]2(C)[C@H](CC[C@@H]3[C@@H]2CC[C@]2(C)[C@@H](C(=O)Nc4ccc(C#N)cn4)CC[C@@H]32)C1
pIC50: > 7.00

SMILES REPR: CCC[C@@]1(O)CC[C@H]2[C@H](CC[C@@H]3[C@@H]2CC[C@]2(C)[C@@H](C(=O)Nc4ccc(C#N)cn4)CC[C@@H]32)C1
pIC50: > 7.00

SMILES REPR: CC[C@@]1(O)CC[C@@]2(C)[C@H](CC[C@@H]3[C@@H]2CC[C@]2(C)[C@@H](C(=O)Nc4nc(C)ccc4Cl)CC[C@@H]32)C1
pIC50: 6.00 to 7.00

SMILES REPR: CCOC[C@@]1(O)CC[C@H]2[C@H](CC[C@@H]3[C@@H]2CC[C@]2(C)[C@@H](C(=O)Nc4ncccc4C)CC[C@@H]32)C1
pIC50: < 6.00

SMILES REPR: COC[C@@]1(O)CC[C@H]2[C@H](CC[C@@H]3[C@@H]2CC[C@]2(C)[C@@H](C(=O)Nc4ccc(C#N)nc4Cl)CC[C@@H]32)C1
pIC50: > 7.00

SMILES REPR: CCC[C@@]1(O)CC[C@@]2(C)[C@H](CC[C@@H]3[C@@H]2CC[C@]2(C)[C@@H](C(=O)Nc4ccc(C#N)cn4)CC[C@@H]32)C1
pIC50: > 7.00

SMILES REPR: CCOC[C@@]1(O)CC[C@H]2[C@H](CC[C@@H]3[C@@H]2CC[C@]2(C)[C@@H](C(=O)Nc4cc(C#N)nn4C)CC[C@@H]32)C1
pIC50: > 7.00

SMILES REPR: C[C@]12CC[C@H]3[C@@H](CC[C@@H]4C[C@H](O)CC[C@@H]43)[C@@H]1CC[C@@H]2C(=O)Nc1cnc(C#N)cn1
pIC50: > 7.00

SMILES REPR: CCOC[C@@]1(O)CC[C@@]2(CC)[C@H](CC[C@H]3[C@@H]4CC[C@H](C(=O)Nc5ccc(C#N)cn5)[C@@]4(C)CC[C@@H]32)C1
pIC50: > 7.00

SMILES REPR: CCOC[C@@]1(O)CC[C@H]2[C@H](CC[C@@H]3[C@@H]2CC[C@]2(C)[C@@H](C(=O)Nc4cnc(C#N)cn4)CC[C@@H]32)C1
pIC50: > 7.00

SMILES REPR: COC[C@@]1(O)CC[C@H]2[C@H](CC[C@@H]3[C@@H]2CC[C@]2(C)[C@@H](C(=O)Nc4cccc(-n5ccc(C)n5)n4)CC[C@@H]32)C1
pIC50: > 7.00

SMILES REPR: CCOC[C@@]1(O)CC[C@H]2[C@H](CC[C@@H]3[C@@H]2CC[C@]2(C)[C@@H](C(=O)Nc4ccc(C#N)nc4C)CC[C@@H]32)C1
pIC50: > 7.00

SMILES REPR: CCOC[C@@]1(O)CC[C@@]2(COC(C)C)[C@H](CC[C@H]3[C@@H]4CC[C@H](C(=O)Nc5ccc(C#N)cn5)[C@@]4(C)CC[C@@H]32)C1
pIC50: > 7.00

SMILES REPR: COC[C@@]1(O)CC[C@H]2[C@H](CC[C@@H]3[C@@H]2CC[C@]2(C)[C@@H](C(=O)Nc4ccc(C)nc4Cl)CC[C@@H]32)C1
pIC50: > 7.00

SMILES REPR: CCOC[C@@]1(O)CC[C@H]2[C@H](CC[C@@H]3[C@@H]2CC[C@]2(C)[C@@H](C(=O)Nc4nc(C)ccc4C)CC[C@@H]32)C1
pIC50: 6.00 to 7.00

SMILES REPR: CCOC[C@@]1(O)CC[C@H]2[C@H](CC[C@@H]3[C@@H]2CC[C@]2(C)[C@@H](C(=O)Nc4ncccc4C(F)(F)F)CC[C@@H]32)C1
pIC50: 6.00 to 7.00

SMILES REPR: CCOC[C@@]1(O)CC[C@H]2[C@H](CC[C@@H]3[C@@H]2CC[C@]2(C)[C@@H](C(=O)Nc4ncc(C)cc4C)CC[C@@H]32)C1
pIC50: 6.00 to 7.00

SMILES REPR: CCOC[C@@]1(O)CC[C@H]2[C@H](CC[C@@H]3[C@@H]2CC[C@]2(C)[C@@H](C(=O)Nc4ccc(N5CCCC5=O)nc4C)CC[C@@H]32)C1
pIC50: > 7.00

SMILES REPR: CCOC[C@@]1(O)CC[C@H]2[C@H](CC[C@@H]3[C@@H]2CC[C@]2(C)[C@@H](C(=O)Nc4c5c(nn4C)CCCC5)CC[C@@H]32)C1
pIC50: 6.00 to 7.00
